system: Faecalibacterium prausnitzii EB-FPDK9 strain; assay: MIC, liquid medium microdilution method (CLSI), EB-FPDK9 strain; assay type: cell-based; conditions: text summary of Table 4
measured_attribute: Resistance or susceptibility of the EB-FPDK9 strain to the antimicrobial agent, in words

O=C(N[C@H](CO)[C@H](O)c1ccc([N+](=O)[O-])cc1)C(Cl)Cl resistance
CO/N=C(\C(=O)N[C@@H]1C(=O)N2C(C(=O)O)=CCS[C@H]12)c1csc(N)n1 resistance
C[C@@H](O)[C@H]1C(=O)N2C(C(=O)O)=C(S[C@@H]3CN[C@H](C(=O)N(C)C)C3)[C@H](C)[C@H]12 resistance
